experiment: Elimination half life in serum of neutropenic ICR/Swiss mouse candidiasis model at 20 mg/kg, ip by reverse-phase high-pressure liquid chromatography; type: ADME, organism-based; set-up: dose 20 mg/kg, route intraperitoneal; details: read-out: beta t1/2 (converted)
Starred links: 1 amine or outer side, 2 acyl side, 3 side chain; linkers in the order of their positions; H or OH if unused. Positions of bridges follow the written chain, without caps; N, C: chain ends. Non-standard residues stand in square brackets, D forms with d. Residues, ends and D or L forms follow the SMILES beside them. *: point of attachment. pTerphenylCO(4''-OnC5H11) = CCCCCOc1ccc(-c2ccc(-c3ccc(C(=O)*)cc3)cc2)cc1; Orn(4R-OH,5R-OH) = O=C([C@H](C[C@@H](O)[C@@H](O)N[*:3])N[*:1])[*:2]; hTyr(3S-OH,4S-OH) = N[C@H](C(=O)O)[C@H](O)[C@@H](O)c1ccc(O)cc1; Pro(3S-OH,4S-Me) = C[C@H]1CN[C@H](C(=O)O)[C@H]1O; Hyp = O=C(O)[C@@H]1C[C@@H](O)CN1
measurement kind: half-life
Answer with the value and then the unit.

Need half-life of CCCCCOc1ccc(-c2ccc(-c3ccc(C(=O)N[C@H]4C[C@@H](O)[C@@H](O)NC(=O)[C@@H]5[C@@H](O)[C@@H](C)CN5C(=O)[C@H]([C@@H](C)O)NC(=O)[C@H]([C@H](O)[C@@H](O)c5ccc(O)cc5)NC(=O)[C@@H]5C[C@@H](O)CN5C(=O)[C@H]([C@@H](C)O)NC4=O)cc3)cc2)cc1 [ANIDULAFUNGIN] ({pTerphenylCO(4''-OnC5H11)}-[Orn(4R-OH,5R-OH)]T[Hyp][hTyr(3S-OH,4S-OH)]T[Pro(3S-OH,4S-Me)]; lactam 1-C) , thanks.
14.7 h
